reported.conditions: in n-butanol, 313.15 K
measurement.type: solubility (mole fraction)

> print(dat)
               item.smiles  assay.result
1  Nc1ccc(Cc2ccc(N)cc2)cc1        0.0476

====

reported.conditions: in methanol, 323.15 K
measurement.type: solubility (mole fraction)

> print(dat)
               item.smiles            measurement.type  assay.result
1  Nc1ccc(Cc2ccc(N)cc2)cc1  solubility (mole fraction)         0.347

====

reported.conditions: in isopropanol, 298.15 K
measurement.type: solubility (mole fraction)

> print(dat)
               item.smiles  assay.result
1  Nc1ccc(Cc2ccc(N)cc2)cc1        0.0136

====

reported.conditions: in methanol, 298.15 K
measurement.type: solubility (mole fraction)

> print(dat)
               item.smiles  assay.result
1  Nc1ccc(Cc2ccc(N)cc2)cc1         0.157

====

reported.conditions: in chloroform, 318.15 K
measurement.type: solubility (mole fraction)

> print(dat)
               item.smiles  assay.result
1  Nc1ccc(Cc2ccc(N)cc2)cc1         0.269

====

reported.conditions: in chloroform, 293.15 K
measurement.type: solubility (mole fraction)

> print(dat)
               item.smiles  assay.result
1  Nc1ccc(Cc2ccc(N)cc2)cc1         0.123

====

reported.conditions: in benzene, 298.15 K
measurement.type: solubility (mole fraction)

> print(dat)
               item.smiles            measurement.type  assay.result
1  Nc1ccc(Cc2ccc(N)cc2)cc1  solubility (mole fraction)        0.0299

====

reported.conditions: in isopropanol, 323.15 K
measurement.type: solubility (mole fraction)

> print(dat)
               item.smiles  assay.result
1  Nc1ccc(Cc2ccc(N)cc2)cc1        0.0536

====

reported.conditions: in isopropanol, 318.15 K
measurement.type: solubility (mole fraction)

> print(dat)
               item.smiles  assay.result
1  Nc1ccc(Cc2ccc(N)cc2)cc1        0.0411

====

reported.conditions: in toluene, 333.15 K
measurement.type: solubility (mole fraction)

> print(dat)
               item.smiles            measurement.type  assay.result
1  Nc1ccc(Cc2ccc(N)cc2)cc1  solubility (mole fraction)        0.0932

====

reported.conditions: in ethanol, 328.15 K
measurement.type: solubility (mole fraction)

> print(dat)
               item.smiles            measurement.type  assay.result
1  Nc1ccc(Cc2ccc(N)cc2)cc1  solubility (mole fraction)         0.267

====

reported.conditions: in n-butanol, 328.15 K
measurement.type: solubility (mole fraction)

> print(dat)
               item.smiles            measurement.type  assay.result
1  Nc1ccc(Cc2ccc(N)cc2)cc1  solubility (mole fraction)        0.0885

====

reported.conditions: in toluene, 318.15 K
measurement.type: solubility (mole fraction)

> print(dat)
               item.smiles  assay.result
1  Nc1ccc(Cc2ccc(N)cc2)cc1        0.0487

====

reported.conditions: in toluene, 303.15 K
measurement.type: solubility (mole fraction)

> print(dat)
               item.smiles  assay.result
1  Nc1ccc(Cc2ccc(N)cc2)cc1        0.0244

====

reported.conditions: in methanol, 313.15 K
measurement.type: solubility (mole fraction)

> print(dat)
               item.smiles  assay.result
1  Nc1ccc(Cc2ccc(N)cc2)cc1         0.259

====

reported.conditions: in ethanol, 323.15 K
measurement.type: solubility (mole fraction)

> print(dat)
               item.smiles            measurement.type  assay.result
1  Nc1ccc(Cc2ccc(N)cc2)cc1  solubility (mole fraction)         0.198

====

reported.conditions: in isopropanol, 308.15 K
measurement.type: solubility (mole fraction)

> print(dat)
               item.smiles  assay.result
1  Nc1ccc(Cc2ccc(N)cc2)cc1        0.0236

====

reported.conditions: in n-butanol, 318.15 K
measurement.type: solubility (mole fraction)

> print(dat)
               item.smiles  assay.result
1  Nc1ccc(Cc2ccc(N)cc2)cc1        0.0582

====

reported.conditions: in chloroform, 303.15 K
measurement.type: solubility (mole fraction)

> print(dat)
               item.smiles  assay.result
1  Nc1ccc(Cc2ccc(N)cc2)cc1         0.165

====

reported.conditions: in ethanol, 293.15 K
measurement.type: solubility (mole fraction)

> print(dat)
               item.smiles  assay.result
1  Nc1ccc(Cc2ccc(N)cc2)cc1        0.0335

====

reported.conditions: in chloroform, 308.15 K
measurement.type: solubility (mole fraction)

> print(dat)
               item.smiles            measurement.type  assay.result
1  Nc1ccc(Cc2ccc(N)cc2)cc1  solubility (mole fraction)         0.197

====

reported.conditions: in ethanol, 298.15 K
measurement.type: solubility (mole fraction)

> print(dat)
               item.smiles            measurement.type  assay.result
1  Nc1ccc(Cc2ccc(N)cc2)cc1  solubility (mole fraction)        0.0461

====

reported.conditions: in isopropanol, 333.15 K
measurement.type: solubility (mole fraction)

> print(dat)
               item.smiles  assay.result
1  Nc1ccc(Cc2ccc(N)cc2)cc1        0.0898

====

reported.conditions: in benzene, 303.15 K
measurement.type: solubility (mole fraction)

> print(dat)
               item.smiles  assay.result
1  Nc1ccc(Cc2ccc(N)cc2)cc1         0.039

====

reported.conditions: in methanol, 303.15 K
measurement.type: solubility (mole fraction)

> print(dat)
               item.smiles  assay.result
1  Nc1ccc(Cc2ccc(N)cc2)cc1         0.187

====

reported.conditions: in n-butanol, 303.15 K
measurement.type: solubility (mole fraction)

> print(dat)
               item.smiles  assay.result
1  Nc1ccc(Cc2ccc(N)cc2)cc1        0.0296

====

reported.conditions: in chloroform, 313.15 K
measurement.type: solubility (mole fraction)

> print(dat)
               item.smiles  assay.result
1  Nc1ccc(Cc2ccc(N)cc2)cc1          0.23

====

reported.conditions: in isopropanol, 313.15 K
measurement.type: solubility (mole fraction)

> print(dat)
               item.smiles            measurement.type  assay.result
1  Nc1ccc(Cc2ccc(N)cc2)cc1  solubility (mole fraction)        0.0312

====

reported.conditions: in toluene, 308.15 K
measurement.type: solubility (mole fraction)

> print(dat)
               item.smiles  assay.result
1  Nc1ccc(Cc2ccc(N)cc2)cc1          0.03

====

reported.conditions: in n-butanol, 293.15 K
measurement.type: solubility (mole fraction)

> print(dat)
               item.smiles  assay.result
1  Nc1ccc(Cc2ccc(N)cc2)cc1        0.0187

====

reported.conditions: in toluene, 328.15 K
measurement.type: solubility (mole fraction)

> print(dat)
               item.smiles  assay.result
1  Nc1ccc(Cc2ccc(N)cc2)cc1         0.075

====

reported.conditions: in toluene, 313.15 K
measurement.type: solubility (mole fraction)

> print(dat)
               item.smiles            measurement.type  assay.result
1  Nc1ccc(Cc2ccc(N)cc2)cc1  solubility (mole fraction)         0.038

====

reported.conditions: in chloroform, 323.15 K
measurement.type: solubility (mole fraction)

> print(dat)
               item.smiles            measurement.type  assay.result
1  Nc1ccc(Cc2ccc(N)cc2)cc1  solubility (mole fraction)         0.306

====

reported.conditions: in n-butanol, 298.15 K
measurement.type: solubility (mole fraction)

> print(dat)
               item.smiles  assay.result
1  Nc1ccc(Cc2ccc(N)cc2)cc1        0.0231

====

reported.conditions: in methanol, 308.15 K
measurement.type: solubility (mole fraction)

> print(dat)
               item.smiles  assay.result
1  Nc1ccc(Cc2ccc(N)cc2)cc1         0.219

Where do these numbers come from? They come from BigSolDB 2.1.
